Exercise: state measured growth for each of the compounds provided.
Tested on: PC-3 prostate
experiment: NCI-60 one-dose screen, 48 h (100 = growth as untreated, 0 = no growth, -100 = all killed)
conditionParameters: 10 µM unless noted
About 83,000 compounds went through this panel and 20% of them were active in at least one assay; those are over-represented in the sample as a whole. Active and inactive are the calls of the source. Rule for the calls: active = growth percent below 10; inactive = the rest.

Consider the following illustrative entries.
O=C1OC(c2ccc(Cl)c(Cl)c2)=C/C1=C/c1cccc([N+](=O)[O-])c1: 97.9% (inactive)
Cn1cc(-c2nc(-c3c[nH]c4ncccc34)cs2)c2cc(Cl)ccc21: 42.4% (inactive)
CCCCC[C@H]1CC=C2C(=O)C(Cl)=C[C@@H]2CC=CCCCC(=O)O[C@@H](CCCCC)CC=C2C(=O)C(Cl)=C[C@@H]2CC=CCCCC(=O)O[C@@H](CCCCC)CC=C2C(=O)C(Cl)=C[C@@H]2CC=CCCCC(=O)O1: 70.2% [8 µM] (inactive)
COc1ccc(/C=C/C(=O)c2ccc([N+](=O)[O-])cc2)cc1: 92% (inactive)
CC(C)(C)c1ccc(OCCCCCCCN2CCNCC2)cc1: 28.1% (inactive)
CCc1nnc(NC(=O)c2ccoc2COc2ccccc2)s1: 67% (inactive)
NC1=NN(c2ccccc2)C(=O)/C1=C/c1ccc(Cl)cc1: 82.8% (inactive)
N#Cc1c(-c2ccc(O)cc2)c2c(N)nn(-c3ccccc3)c2[nH]c1=O: 102% (inactive)

Could you now look at the following compound, please?
### Prompt Request body: readout growth, system PC-3 prostate, query COc1ccc(O)c(-c2cc(-c3ccc(Cl)cc3)c(C#N)c(=O)[nH]2)c1 . Return the value.
### Response 55.6% (inactive)
